tested on: C6 glioma cells; experiment: MTT cytotoxicity in C6 glioma cells; format: cell-based; settings: 24 h treatment, read-out: IC50 at 24 h, C6 cells
value type: IC50 (µM)
Give just the number in µM; leave the unit off.

Qu. Record request: IC50 value, item COc1cc(CCC(=O)CC(=O)CCc2ccc(O)c(OC)c2)ccc1O [THC, Tetrahydrocurcumin]
Ans. 111

---

system: C6 glioma cells; assay: MTT cytotoxicity in C6 glioma cells; assay type: cell-based; conditions: 48 h treatment, read-out: IC50 at 48 h, C6 cells
value type: pIC50
The scale used: pIC50 is minus the common logarithm of the concentration in molar units.

Qu. Record request: pIC50 value, item COc1cc(CCC(=O)CC(=O)CCc2ccc(O)c(OC)c2)ccc1O [THC, Tetrahydrocurcumin]
Ans. 4.28
